target: Trace amine-associated receptor 1 (Mus musculus, UniProt Q923Y8); assay: Activity at mouse TAAR1 by measuring cAMP accumulation in HEK293 cells
Sequence (Q923Y8 whole entry): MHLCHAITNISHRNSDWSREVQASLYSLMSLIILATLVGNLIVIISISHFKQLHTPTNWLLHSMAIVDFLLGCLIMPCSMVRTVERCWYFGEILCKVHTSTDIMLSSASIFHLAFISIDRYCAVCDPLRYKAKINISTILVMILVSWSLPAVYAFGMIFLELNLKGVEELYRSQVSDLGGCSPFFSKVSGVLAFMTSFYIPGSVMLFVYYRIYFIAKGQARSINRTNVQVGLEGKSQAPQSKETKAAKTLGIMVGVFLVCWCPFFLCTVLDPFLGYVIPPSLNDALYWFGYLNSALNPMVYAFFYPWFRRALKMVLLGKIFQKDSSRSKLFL
pEC50: −log10 of the molar value.
Reported pEC50 values for the following compounds.

- Compound: "NCCc1cc(I)c(Oc2ccc(O)cc2)c(I)c1"
  Qualifier symbol: "="
  pEC50: 6.43
- Compound: "NCCc1ccc(OCCc2ccccc2)cc1"
  Qualifier symbol: "="
  pEC50: 6.68
- Compound: "NCCc1ccc(Oc2cc(I)c(O)c(I)c2)c(I)c1"
  Qualifier symbol: "<"
  pEC50: 6.00
- Compound: "NCCc1ccc(OCc2ccccc2)c(I)c1"
  Qualifier symbol: "="
  pEC50: 6.66
- Compound: "NCCc1ccc(OCc2c(F)c(F)c(F)c(F)c2F)cc1"
  Qualifier symbol: "<"
  pEC50: 6.00
- Compound: "NCCc1cc(I)c(Oc2ccc(O)c(I)c2)c(I)c1"
  Qualifier symbol: "<"
  pEC50: 6.00
- Compound: "CNCCc1ccc(OCc2ccccc2)cc1"
  Qualifier symbol: "="
  pEC50: 7.27
- Compound: "NCCc1ccc(Oc2ccc(O)c(I)c2)cc1"
  Qualifier symbol: "<"
  pEC50: 6.00
- Compound: "COc1cc(COc2ccc(CCN)cc2)cc(OC)c1"
  Qualifier symbol: "="
  pEC50: 6.91
- Compound: "NCCc1ccc(OCCCCc2ccccc2)cc1"
  Qualifier symbol: "="
  pEC50: 7.10
- Compound: "Cc1cc(CCN)ccc1Oc1ccc(O)cc1"
  Qualifier symbol: "="
  pEC50: 6.94
- Compound: "NCCc1ccc(OCc2ccc([N+](=O)[O-])cc2)cc1"
  Qualifier symbol: "="
  pEC50: 7.67
- Compound: "CCNCCc1ccc(OCc2ccccc2)cc1"
  Qualifier symbol: "="
  pEC50: 7.15
- Compound: "NCCc1ccc(Oc2cc(I)c(O)c(I)c2)cc1"
  Qualifier symbol: "<"
  pEC50: 6.00
- Compound: "CNCCc1ccc(Oc2ccc(OC)cc2)c(I)c1"
  Qualifier symbol: "<"
  pEC50: 6.00
- Compound: "NCCc1ccc(OCCCc2ccccc2)cc1"
  Qualifier symbol: "="
  pEC50: 6.99
- Compound: "CNCCc1ccc(Oc2ccc(F)cc2)c(I)c1"
  Qualifier symbol: "="
  pEC50: 7.49
- Compound: "Cc1cc(C)cc(COc2ccc(CCN)cc2)c1"
  Qualifier symbol: "="
  pEC50: 7.01
- Compound: "NCCc1ccc(Oc2ccc(O)cc2)cc1 [THYRONAMINE]"
  Qualifier symbol: "="
  pEC50: 6.00
- Compound: "c1ccc(CNCCc2ccc(OCc3ccccc3)cc2)cc1"
  Qualifier symbol: "<"
  pEC50: 6.00
- Compound: "CN(C)CCc1ccc(OCc2ccccc2)cc1"
  Qualifier symbol: "="
  pEC50: 6.72
- Compound: "CNCCc1ccc(OCc2ccc(C(F)(F)F)cc2)cc1"
  Qualifier symbol: "="
  pEC50: 7.92
- Compound: "NCCc1ccc(Oc2ccccc2)cc1"
  Qualifier symbol: "="
  pEC50: 6.53
- Compound: "NCCc1ccc(OCc2ccccc2)cc1"
  Qualifier symbol: "="
  pEC50: 6.77
- Compound: "CNCCc1ccc(Oc2ccc(C(F)(F)F)cc2)c(I)c1"
  Qualifier symbol: "<"
  pEC50: 6.00
- Compound: "NCCc1ccc(Oc2ccc(O)c(I)c2)c(I)c1"
  Qualifier symbol: "="
  pEC50: 6.00
- Compound: "NCCc1ccc(OCC(=O)c2ccccc2)cc1"
  Qualifier symbol: "="
  pEC50: 7.08
- Compound: "CNCCc1ccc(Oc2ccc(O)cc2)c(I)c1"
  Qualifier symbol: "="
  pEC50: 6.66
